Assay Name: chemical genetic growth profiling, strain panel (AID 1159580);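 note: tested at 20 µM; growth read once vehicle control cultures reached saturation at 30 °C; 1 = growth at the plate median or of vehicle wells; lower values mean less growth of the strain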
Applied Conditions: S. cerevisiae deletion strains, growth OD, locus YDR226W, strain ADK1, active compounds read low
Hit rate of the full screen: of about 5,500 compounds, about 2,000 (36%) were called active. Another 18% or so got no clear call; they are omitted. The list shows a part of the results.
The entries below are paired with their reported normalized growth.
Quantity Name: normalized growth

Cc1nnsc1C(=O)NNc1ccc(F)cc1F; 0.953
Cc1nnsc1C(=O)Nc1cc(C(F)(F)F)cc(C(F)(F)F)c1; 0.955
Cc1ccc(/C=C2\CSc3ccc(F)cc3C2=O)cc1; 0.952
